B1: ZNF232 (parent)
chain: HSGEKPFICKECGKAYGWCSELIR

Variants of: B1
Test: protein stability index of a GFP-peptide fusion (GPS, HEK-293T) (PSI 1-6); higher = more stable;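 also: lentivirally expressed fusions sorted by FACS into six bins by GFP to DsRed ratio, PSI derived from sequencing read proportions per bin multiplied by bin number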
Settings: c terminus: a fixed tail appended
Please respond with reported protein stability index for every item in the list.
Give bare numbers.

A15P ... 2.29
R24Q ... 2.44
G13H ... 1.77
A15L ... 1.49
R24Y ... 1.61

Please report protein stability index for every entry that follows.
1. K5R
2. K14E
3. K5Y

Result:
2.57
1.61
1.74

Please report protein stability index for every entry that follows.
1. E4W
2. I8W
3. G3L
4. S2Q
5. S20I
6. G17K
7. E4C
8. K14L

Result:
1: 1.54; 2: 1.69; 3: 1.57; 4: 2.04; 5: 2.17; 6: 1.6; 7: 1.9; 8: 1.44
